# ASSAY_NOTES: Primary qHTS for inhibitors of nuclear receptor binding SET domain protein 2 (NSD2) in an RCH-ACV wild type WT cells (2C) (AID 1645877); also: % is scaled to controls: 0 for no effect and ±100 for the full control effect; nearly all actives have a fitted effect of over 70% in size
# CONDITION_CONTEXT: RCH-ACV (leukaemia line) NSD2 WT (2C) viability, CellTiter-Glo, 72 h; series mostly up to 44.9 µM
Results filed as inconclusive are left out. Calls of active or inactive are those of the source. Calls follow the shape of the dose curve; as a rule, active = well fitted inhibition curve with a large enough effect; inconclusive = small, poorly fitted or top-dose-only effect; inactive = no such curve, though single readings can be large or run the other way.
ASSAY_READOUT: activity change, negative = cell killing

compound="CC1(C=O)CC[C@]2(C(=O)O[C@@H]3O[C@H](CO)[C@@H](O)[C@H](O)[C@H]3O)CC[C@]3(C)C(=CCC4[C@@]5(C)C[C@H](O)[C@H](O[C@@H]6OC[C@@H](O)[C@H](O)[C@H]6O)[C@@](C)(CO)C5CC[C@]43C)C2C1 (some centres not stated)" val="-3.33% [at 9.23 µM] (inactive)"
compound="C/C=C(\\C)C(=O)O[C@@H]1CC2[C@@H](CC=C3C[C@@H](O[C@H]4C[C@H](OC)[C@H](O[C@H]5C[C@H](OC)[C@H](O[C@@H]6O[C@H](C)[C@@H](O[C@H]7C[C@H](OC)[C@H](O[C@@H]8O[C@H](CO)[C@@H](O)[C@H](O)[C@H]8O)[C@@H](C)O7)[C@H](OC)[C@H]6O)[C@@H](C)O5)[C@@H](C)O4)CC[C@@]32C)[C@@]2(O)CC[C@H](C(C)=O)[C@@]12C (some centres not stated)" val="-12.6% [at 9.23 µM] (inactive)"

----------
# Tested on: KB-3-1
# ASSAY_NOTES: Cytotoxic Profiling of Annotated Libraries Using Quantitative High-Throughput Screening (AID 1296008); also: nearly all actives have a fitted effect of over 60% in size
# CONDITION_CONTEXT: Five cell lines viability, CellTiter-Glo ATP luminescence, 48-72 h
# Procedure: Cell-based phenotypic screening is a commonly used approach to discover biological pathways, novel drug targets, chemical probes and high-quality hit-to-lead molecules. […] A pintool (Kalypsys) was used to transfer 23 nL of compound solution to the 1536-well assay plates. […] Plates were left at room temperature for 10 min before imaging the ATP-coupled luminescence using a ViewLux microplate imager (PerkinElmer, Waltham, MA).
Inconclusive results are not listed. The source made the active and inactive calls. The call rests on the fitted dose curve; in most records, active means well fitted inhibition curve with a large enough effect; inconclusive means small, poorly fitted or top-dose-only effect; inactive means flat fitted curve, though single readings scatter. Where a SMILES comes first, the peptide text is derived from it. The star is where a group is joined. AFC = O=c1cc(C(F)(F)F)c2ccc(N*)cc2o1
Classes used: active, inactive

molecule="C=C1[C@@H]2CC[C@@H]3[C@@](CCC4C(C(=O)O)(C(=O)O)C[C@@H](O[C@@H]5O[C@H](CO)[C@@H](O)[C@H](O)[C@H]5OC(=O)CC(C)C)C[C@]43C)(C2)[C@H]1O (stereo not given in full)" subject_of_test=KB-3-1 class=inactive
molecule=CS(=O)(=O)N1CCC(NC(=O)c2[nH]ncc2NC(=O)c2c(Cl)cccc2Cl)CC1 subject_of_test=KB-3-1 class=active
molecule=Cc1cc(Nc2cc(N3CCN(C)CC3)nc(/C=C/c3ccccc3)n2)n[nH]1 subject_of_test=KB-3-1 class=active
molecule=CCCn1c(=O)c2[nH]c(-c3ccc(OCC(=O)O)cc3)nc2n(CCC)c1=O subject_of_test=KB-3-1 class=inactive
molecule=CCCNc1ccc2ncc(-c3ccc4[nH]ncc4c3)n2n1 subject_of_test=KB-3-1 class=active
molecule="CNC(=O)c1ccccc1Nc1nc(Nc2ccc3c(c2OC)CCCC(N2CCN(CCO)CC2)C3)ncc1Cl (stereo not given)" subject_of_test=KB-3-1 class=active
molecule="CCCCNc1ncc2c(-c3ccc(CN4CCN(C)CC4)cc3)cn(C3CCC(O)CC3)c2n1 (stereo not given)" subject_of_test=KB-3-1 class=active
molecule=CN[C@H](CC(C)C)C(=O)N[C@H]1C(=O)N[C@@H](CC(N)=O)C(=O)N[C@H]2C(=O)N[C@H]3C(=O)N[C@H](C(=O)N[C@H](C(=O)O)c4cc(O)cc(O)c4-c4cc3ccc4O)[C@H](O[C@H]3C[C@](C)(N)[C@@H](O)[C@H](C)O3)c3ccc(c(Cl)c3)Oc3cc2cc(c3O[C@@H]2O[C@H](CO)[C@@H](O)[C@H](O)[C@H]2O[C@H]2C[C@](C)(NCc3ccc(-c4ccc(Cl)cc4)cc3)[C@@H](O)[C@H](C)O2)Oc2ccc(cc2Cl)[C@H]1O subject_of_test=KB-3-1 class=inactive
molecule="CC(=O)CC1CCC(C(C)C(=O)OCC(O)CO)O1 (stereo not given)" subject_of_test=KB-3-1 class=inactive
molecule="CC(=O)C1=CCC2C3CCC4CC(O[C@@H]5O[C@H](CO)[C@@H](O[C@@H]6O[C@@H](C)[C@H](O)[C@@H](O)[C@H]6O)[C@H](O)[C@H]5O[C@@H]5O[C@H](CO)[C@@H](O)[C@H](O)[C@H]5O)CCC4(C)C3CCC12C (stereo not given in full)" subject_of_test=KB-3-1 class=inactive
molecule="CC(=O)OC/C=C(\\C)C(CC1C(C)=C(OC(C)=O)C(=O)C2C(C)(C)C(O)CCC12C)OC(C)=O (stereo not given)" subject_of_test=KB-3-1 class=inactive
molecule=COc1ncc(Nc2ncc([C@@H](C)N3CCN(S(C)(=O)=O)CC3)cc2-c2nc(C)nc(N)n2)cc1F subject_of_test=KB-3-1 class=active
molecule="C=C1CC23CC1CCC2C12OC(=O)C(C)(CCC1O)C2C3C(=O)O (stereo not given)" subject_of_test=KB-3-1 class=inactive
molecule="CC(C)=CCC/C(C)=C/CCC1(C)Oc2c(c(O)cc3c2CN(C(CCC(=O)O)C(=O)O)C3=O)CC1O (stereo not given)" subject_of_test=KB-3-1 class=inactive
molecule=COc1cc2c(c(OC)c1CC=C(C)C)C[C@H](c1ccc(O)cc1O)CO2 subject_of_test=KB-3-1 class=inactive
molecule=COc1cc(OC)c(/C=C/S(=O)(=O)Cc2ccc(OC)c(NCC(=O)O)c2)c(OC)c1 subject_of_test=KB-3-1 class=active
molecule=Nc1ccc(-c2cccc3c(=O)cc(N4CCOCC4)oc23)cc1 subject_of_test=KB-3-1 class=active
molecule=CC(=O)N[C@@H](CCCCN)C(=O)N(C)[C@@H](CC(C)C)C(=O)N[C@H](C(=O)N(C)[C@@H](Cc1ccccc1)C(=O)N[C@H](Cc1ccccc1)C(N)=O)C(C)C subject_of_test=KB-3-1 class=inactive
molecule="COc1ccc(C(O)C(C)OC2OC(CO)C(O)C(O)C2O)cc1 (stereo not given)" subject_of_test=KB-3-1 class=inactive
molecule="O=C1NC(Cc2c[nH]c3ccccc23)C(=O)NC1Cc1c[nH]c2ccccc12 (stereo not given)" subject_of_test=KB-3-1 class=inactive
molecule="CC(=O)N[C@@H](Cc1c[nH]c2ccccc12)C(=O)N[C@@H](CCC(=O)O)C(=O)N[C@@H](Cc1cnc[nH]1)C(=O)N[C@@H](CC(=O)O)C(=O)Nc1ccc2c(C(F)(F)F)cc(=O)oc2c1 (Ac-WEHD-{AFC})" subject_of_test=KB-3-1 class=inactive
molecule=CC[C@@](C)(Nc1ccnc(-c2c[nH]c3ncccc23)n1)C(=O)NCC(F)(F)F subject_of_test=KB-3-1 class=inactive
molecule="CC1=CCC(C(C)(C)O[C@@H]2O[C@H](CO[C@@H]3O[C@@H](C)[C@H](O)[C@@H](O)[C@H]3O)[C@@H](O)[C@H](O)[C@H]2O)CC1 (stereo not given in full)" subject_of_test=KB-3-1 class=inactive
molecule="CC1=CC2C(CC1OC1OC(CO)C(O)C(O)C1O)C(C)CC(=O)C2C(C)C (stereo not given)" subject_of_test=KB-3-1 class=inactive
molecule="C=CC(C)(C)C12C=C(OC)C(=O)N3C(C(C)C)C(=O)NC31N(OC)c1ccccc12 (stereo not given)" subject_of_test=KB-3-1 class=inactive
molecule=OC[C@H]1O[C@@H](OC[C@H]2O[C@@H](OC/C=C/c3ccccc3)[C@H](O)[C@@H](O)[C@@H]2O)[C@@H](O)[C@@H]1O subject_of_test=KB-3-1 class=inactive
molecule=COc1cc(N2CCOCC2)ccc1Nc1ncc(Cl)c(Nc2ccccc2NS(C)(=O)=O)n1 subject_of_test=KB-3-1 class=active
molecule="COc1c2c(c(CO)c3c1C(=O)OC3)OC1(C)CCC3(O)C(C)(C)OC(=O)CCC3(C)C1C2 (stereo not given)" subject_of_test=KB-3-1 class=inactive
molecule="CC(O)(CC(=O)O)CC(=O)OCc1ccc(O[C@@H]2O[C@H](CO)[C@@H](O)[C@H](O)[C@H]2O)cc1 (stereo not given in full)" subject_of_test=KB-3-1 class=inactive
molecule=C=CC(=O)Nc1cc(Nc2ncc(Cl)c(-c3c[nH]c4ccccc34)n2)c(OC)cc1N(C)CCN(C)C subject_of_test=KB-3-1 class=active

Source listed as PubChem BioAssay (NCATS).
